Test system: major human CYP isoforms (CYP1A2, 2C9, 2C19, 2D6 and 3A)
Test: in vitro
Settings: microsomes
Property name: IC50

Query: Form field: reported IC50 of C1COCCN1 [Morpholine]
Reply: 7.9 to 16 mM

----------
Target: CYP2C9 (Homo sapiens, UniProt P11712)
Sequence (P11712 whole entry): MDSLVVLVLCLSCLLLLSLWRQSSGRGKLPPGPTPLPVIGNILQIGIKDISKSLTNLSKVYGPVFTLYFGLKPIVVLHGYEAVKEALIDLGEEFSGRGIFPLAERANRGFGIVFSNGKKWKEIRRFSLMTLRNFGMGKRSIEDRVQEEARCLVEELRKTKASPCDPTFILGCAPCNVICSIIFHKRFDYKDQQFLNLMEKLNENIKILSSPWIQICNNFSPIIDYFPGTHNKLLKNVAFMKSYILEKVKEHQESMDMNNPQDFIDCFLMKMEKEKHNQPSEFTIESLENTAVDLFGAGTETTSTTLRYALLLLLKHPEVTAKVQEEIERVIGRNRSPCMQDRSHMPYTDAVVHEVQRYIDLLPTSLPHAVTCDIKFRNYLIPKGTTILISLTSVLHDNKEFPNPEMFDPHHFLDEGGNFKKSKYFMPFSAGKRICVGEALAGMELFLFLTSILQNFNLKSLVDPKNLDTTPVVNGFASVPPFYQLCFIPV
Conditions: microsomes
pIC50: −log10 of the molar value.
Property name: pIC50

Query: Form field: reported pIC50 of O=[As][O-].[Na+] [Arsenite, sodium arsenite]
Reply: < 2.00

----------
Give measured IC50 for each item. Keep answers brief.
Target: CYP2C19 (Homo sapiens, UniProt P33261)
Sequence (P33261 whole entry): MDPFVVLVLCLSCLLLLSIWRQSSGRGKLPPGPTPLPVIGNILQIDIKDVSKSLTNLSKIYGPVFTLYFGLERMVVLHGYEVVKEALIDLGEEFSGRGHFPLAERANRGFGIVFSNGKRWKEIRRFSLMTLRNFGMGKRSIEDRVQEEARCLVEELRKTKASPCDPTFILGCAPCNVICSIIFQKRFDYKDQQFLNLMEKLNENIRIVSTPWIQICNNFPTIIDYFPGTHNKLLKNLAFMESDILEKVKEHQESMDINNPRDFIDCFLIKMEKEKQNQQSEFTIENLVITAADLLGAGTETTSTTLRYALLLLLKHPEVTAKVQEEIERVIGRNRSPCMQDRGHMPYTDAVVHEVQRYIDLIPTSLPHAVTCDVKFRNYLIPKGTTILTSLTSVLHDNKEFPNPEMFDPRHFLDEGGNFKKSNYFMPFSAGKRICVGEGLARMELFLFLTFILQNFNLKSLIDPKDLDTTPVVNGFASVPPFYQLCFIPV
Test: CYP inhibition in human liver microsomes, CYP2C19 ((S)-mephenytoin probe)
Provide the reading as a plain figure in mM.

Query: Form field: reported IC50 of C1COCCN1
Reply: 14

Query: Form field: reported IC50 of CCN1C(=O)C=CC1=O [N-Ethylmaleimide (NEM), N-Ethylmaleimide]
Reply: 2.9

----------
Biological target: CYP2D6 (Homo sapiens)
Sequence (P10635 whole entry): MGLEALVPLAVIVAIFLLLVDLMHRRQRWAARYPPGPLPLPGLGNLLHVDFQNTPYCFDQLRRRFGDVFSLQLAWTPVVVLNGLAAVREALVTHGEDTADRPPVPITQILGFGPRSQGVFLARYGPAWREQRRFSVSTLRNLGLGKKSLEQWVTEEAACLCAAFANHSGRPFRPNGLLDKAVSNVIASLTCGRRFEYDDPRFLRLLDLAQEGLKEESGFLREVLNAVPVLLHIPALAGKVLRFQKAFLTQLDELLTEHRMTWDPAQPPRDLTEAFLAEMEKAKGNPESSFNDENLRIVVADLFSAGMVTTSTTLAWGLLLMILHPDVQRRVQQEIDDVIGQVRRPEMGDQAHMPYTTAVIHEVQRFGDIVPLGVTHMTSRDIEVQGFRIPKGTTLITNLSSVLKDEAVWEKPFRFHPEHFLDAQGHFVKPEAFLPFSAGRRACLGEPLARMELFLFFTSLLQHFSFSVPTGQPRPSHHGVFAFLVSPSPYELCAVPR
Conditions: microsomes
Property name: IC50

Query: Form field: reported IC50 of O=[As][O-].[Na+] [Arsenite, sodium arsenite]
Reply: > 10 mM

----------
Biological target: UniProtKB P11712
Experiment: CYP inhibition in human liver microsomes, CYP2C9 ((S)-warfarin probe)
Property name: IC50 (mM)
Provide the reading as a plain figure in mM.

Query: Form field: reported IC50 of C1COCCN1
Reply: 7.9

Query: Form field: reported IC50 of CCN1C(=O)C=CC1=O [N-Ethylmaleimide (NEM), N-Ethylmaleimide]
Reply: 3.2
